System: HS 578T breast
test_details: NCI-60 one-dose screen, 48 h (100 = growth as untreated, 0 = no growth, -100 = all killed)
setup_conditions: 10 µM unless noted
Compounds without any hit were thinned out: in the full panel of roughly 83,000, 20% have a hit.
Label key: rule met means growth under 40%; rule not met means growth of 40% or more.

compound	qualitative_label
Cn1ccnc1C(=O)/C=C/c1ccc(CNC(=O)c2ccc(Cl)cc2)cc1	rule met
CN1c2ccccc2Sc2cc(C=C(C#N)C#N)ccc21	rule not met
Cc1ccc(-c2nnc(SCc3ccc(O)c4ncccc34)o2)cc1	rule met
Nc1ncc(-c2ccc3ncnc(Nc4cccc(Cl)c4F)c3c2)cn1	rule met
Cc1nn(-c2ccccc2)c2ncnc(N/N=C/c3ccccc3O)c12	rule met
CCNC(=O)N1CCc2cc(OC)c(OCCc3ccc(OC)c(N)c3)cc2C1c1ccc(C)cc1C (stereo unspecified)	rule met
CC1(C)[C@@H](O)CC[C@]2(C)[C@H]3CC[C@@H]4[C@H]5[C@H](C(=O)/C=C\c6ccc([N+](=O)[O-])cc6)CC[C@]5(O)CC[C@@]4(C)[C@]3(C)CC[C@@H]12	rule not met
CCNC(=O)N1CCc2cc(OC)c(OCCc3ccc(OC)nc3)cc2C1c1ccc(OC)cc1C (stereo unspecified)	rule met
COc1cccc(N2CCN(c3ncnc4c3[nH]c3ccc(F)cc34)C[C@H]2C)c1	rule not met
CCc1nn2c(C)cc(C)nc2c1Cc1ccc(/C=C/CN2CCN(CCOCCOCCN3CCN(C/C=C/c4ccc(Cc5c(CC)nn6c(C)cc(C)nc56)cc4)CC3)CC2)cc1	rule met
O=C1/C(=C/C=C/c2ccco2)SC(=S)N1C1CCCCC1	rule not met
O=C1[C@H]2Cc3c([nH]c4ccccc34)[C@@H](c3ccc(Br)cc3)N2C(=O)CN1C1CCN(CC2CCCCC2)CC1	rule met
Cc1cccc2c3c(sc12)C(c1ccc(F)cc1)C(C#N)=C(/N=C/c1ccc(Cl)cc1)O3 (stereo unspecified)	rule met
Cc1ccc2sc3c(c2c1)OC(N)=C(C#N)C3c1cccc(F)c1 (stereo unspecified)	rule met
COc1cc(OC)cc(C(=O)Nc2cccc(C#Cc3cccc4[nH]nc(N)c34)c2)c1	rule met
CC(=O)c1cc(C(=O)N2c3ccccc3Sc3ccccc32)n2ccc3ccccc3c12	rule met
COc1cc(OC)c(S(N)(=O)=O)cc1C(=O)/C=C/c1ccc(C)cc1	rule met
CC(C)(C)c1ccc(C(=O)Nc2sc3c(c2C(N)=O)CCC(O)C3)cc1 (stereo unspecified)	rule not met
CCNC(=O)Oc1ccc(/C(=C(/C)c2ccccc2)c2ccc(OCCN3CCCCCC3)cc2)cc1	rule met
NC(N)=Nc1ccc(Oc2cccc(Nc3ccc(Br)c(C(F)(F)F)c3)c2)cc1	rule met
Cc1noc(C)c1CSc1nc2ccccc2n1-c1ccccc1	rule not met
O=C(CSc1nc2ccccc2c(=O)n1-c1ccc(Cl)cc1)N/N=C/c1ccc(N2CCCCC2)cc1	rule met
CC(O)c1cc2ccccc2c(=O)o1 (stereo unspecified)	rule not met
COc1ccc(C(=O)c2c(N)c(C#N)cn2-c2ccccc2OC)cc1	rule met
COc1ccc(S(=O)(=O)NCCCNc2nccc(-c3cn(C(C)(C)C)nc3-c3ccc(Cl)c(OC)c3)n2)cc1	rule not met
C=CCN(C)S(=O)(=O)/N=C1\NC(=O)NC1=C(Cl)Cl	rule not met
COc1ccc(C2CC(c3ccc(Nc4nc(NCCO)nc(N5CCOCC5)n4)cc3)=Nc3c(N)nc(N)nc3N2)cc1 (stereo unspecified)	rule not met
COc1cc(-c2nn(C(C)(C)C)cc2-c2ccnc(NCCCNS(=O)(=O)c3ccc(F)cc3)n2)ccc1Cl	rule not met
COc1cc(/C=C2\C(=O)Nc3ccccc32)ccc1OCc1ccc(F)cc1	rule not met
NC(N)=Nc1ccc(Oc2cccc(NC(N)=Nc3ccc(Br)c(C(F)(F)F)c3)c2)cc1	rule met
NC(N)=Nc1ccc(Oc2cccc(Nc3cccc(C(F)(F)F)c3)c2)cn1	rule not met
Cc1ccc(NC(=S)NNC(=S)Nc2ccc(C)cc2)cc1	rule not met
Cn1ccnc1C(=O)/C=C/c1ccc(CNC(=O)c2c(F)c(F)c(F)c(F)c2F)cc1	rule not met
CN(C)CCCOc1ccc2c(c1)CN(C(=O)c1cc(C(=O)N3Cc4cccc(F)c4C3)ccc1O)C2	rule not met
O=C(Cn1cc(-c2ccccc2)nn1)Nc1nc(-c2ccc(Cl)cc2)cs1	rule not met
NS(=O)(=O)c1ccc(-n2cc(CN3CCNCC3)nn2)cc1	rule not met

----------
Tested on: CAKI-1 renal
test_details: NCI-60 one-dose screen, 48 h (100 = growth as untreated, 0 = no growth, -100 = all killed)
setup_conditions: 10 µM unless noted
The panel holds about 83,000 compounds, 20% with a hit somewhere; the sample as a whole holds those more often.
property_measured: growth (%)

compound	measurement_target	unit_descriptor	reported_result
C#C[C@]1(O)CC[C@H]2[C@@H]3CC=C4c5sc(-c6ccc7c(c6)OCO7)nc5CC[C@]4(C)[C@H]3CC[C@@]21C	CAKI-1 renal	%	44.4
COc1ccc(NC(=O)Nc2ccc3c(ccn3C(=O)c3cccc(F)c3)c2)cc1	CAKI-1 renal	%	90.1
Cn1ccnc1C(=O)/C=C/c1ccc(NC(=O)c2ccc(F)cc2)cc1	CAKI-1 renal	%	41.4
COc1ccccc1-n1cc(C#N)c(N)c1C(=O)c1ccc(C)cc1	CAKI-1 renal	%	78.5
COc1ccc(C2c3sc4c(C)cccc4c3Oc3nc(CC(=O)Nc4ccccc4)[nH]c(=O)c32)cc1 (configuration not stated)	CAKI-1 renal	%	46
COc1ccc2c(c1)c(-c1cc(N)n3nc(-c4cn(C)c5ccc(OC)cc45)cc3n1)cn2C	CAKI-1 renal	%	96.7
COc1ccc(C(=O)Nc2ncc(Cc3ccccc3Cl)s2)cc1	CAKI-1 renal	%	36.4

----------
Each record here notes measured growth.
System: SF-295 CNS
test_details: NCI-60 one-dose screen, 48 h (100 = growth as untreated, 0 = no growth, -100 = all killed)
setup_conditions: 10 µM unless noted
This is part of a sample that, as a whole, favours compounds with a hit. Of some 83,000 tested, about 20% had one in any assay.

molecule	growth (%)
CC(C)C[C@@H]1N[C@@]2(C(=O)Nc3ccccc32)[C@@H](c2ccc(F)cc2)[C@@H]1C(=O)c1ccc(O)cc1	100
COc1cc(-c2nn(C(C)(C)C)cc2-c2ccnc(NCCCNS(=O)(=O)c3cccc(F)c3)n2)ccc1Cl	83.7
CN1CCN(c2ccc(/C=N/n3cnc4oc(-c5ccccc5)cc4c3=N)cc2)CC1	99.6
COc1ccc(NC(=O)CSc2nnc(-c3ccc4nc(-c5ccc(OC)c(OC)c5)[nH]c4c3)o2)cc1OC	107
C=C(C=O)[C@@H]1CC[C@]2(COC(C)=O)CC[C@]3(C)C(CC[C@@H]4[C@@]5(C)CC[C@H](OC(C)=O)C(C)(C)[C@@H]5CC[C@]43C)[C@@H]12 (stereo partly specified)	0.392
O=C(Cn1cc[n+](CC(=O)c2ccc(-c3ccccc3)cc2)c1)Nc1cccc2cccnc12	102
CNC1CCc2c(sc(NC(=O)c3ccc(C(C)(C)C)cc3)c2C(N)=O)C1 (stereo unspecified)	-70.9
CC(=O)C1=C(C)NC(NN)=NC1c1cccc(Cl)c1 (stereo unspecified)	104
CCO/C=N/C1=C(C#N)C(c2ccc(F)cc2)c2sc3c(C)cccc3c2O1 (stereo unspecified)	-6.89
O=C(Nc1nonc1-c1ccccc1)c1ccc(C(F)(F)F)cc1	59.7
NS(=O)(=O)c1ccc(-n2cc(-c3cccc(NC(=O)c4ccc(N5CCOCC5)c(C(F)(F)F)c4)c3)nn2)cc1	32.6

----------
Tested on: NCI-H460 lung
test_details: NCI-60 one-dose screen, 48 h (100 = growth as untreated, 0 = no growth, -100 = all killed)
setup_conditions: 10 µM unless noted
This is part of a sample that, as a whole, favours compounds with a hit. Of some 83,000 tested, about 20% had one in any assay.
Decide using growth: a value greater than or equal to 60% is Satisfied, a smaller one is Not satisfied.

compound	measurement_target	qualitative_label
Cc1cc(-c2ccc(Cl)cc2)n(Cc2nnc(SCC(=O)Nc3ccc(S(N)(=O)=O)cc3)n2-c2ccc([N+](=O)[O-])cc2)n1	NCI-H460 lung	Satisfied
Cc1cc(C)cc(C(=O)Nc2cccc(C#Cc3cccc4[nH]nc(N)c34)c2)c1	NCI-H460 lung	Not satisfied
Cn1cc(-c2cc(N)n3nc(-c4cn(C)c5ccccc45)cc3n2)c2ccccc21	NCI-H460 lung	Satisfied
COc1ccc(/C=C(\C#N)C(=O)N2c3ccccc3Sc3ccc(SC)cc32)cc1F	NCI-H460 lung	Satisfied
CCNC(=O)N1CCc2cc(OC)c(OCCc3ccc(OC)c(N)c3)cc2C1c1cc(C)c(C)cc1C (configuration not stated)	NCI-H460 lung	Not satisfied
NS(=O)(=O)c1ccc(-n2cc(CN3CCCCC3)nn2)cc1	NCI-H460 lung	Satisfied
N#Cc1cccc(CN2CCC3=C(C2)C(=O)N(Cc2ccc(Cl)cc2)C2=NCCCN23)c1	NCI-H460 lung	Not satisfied
COc1ccc(C2CC(c3ccc(Nc4nc(NCCO)nc(N5CCOCC5)n4)cc3)=Nc3c(N)nc(N)nc3N2)cc1 (configuration not stated)	NCI-H460 lung	Satisfied
Oc1ccc(CSc2nnc(-c3ccc(Cl)cc3)n2-c2ccccc2)c2cccnc12	NCI-H460 lung	Not satisfied
CNCc1cccc2c1OCCCCCCC(C)(O)CC(C)(C)S(=O)(=O)c1ccc(cc1)-c1cnc(N)c(n1)C(=O)N2 (configuration not stated)	NCI-H460 lung	Not satisfied
Cc1occc1-c1nc2s/c(=C/c3ccc(-c4cc(C(F)(F)F)ccc4Cl)o3)c(=O)n2n1	NCI-H460 lung	Satisfied
COc1ccc(/C=N/NC(=O)c2cn(C3CC3)c3c(OC)c(N4CC5CCCNC5C4)c(F)cc3c2=O)cc1 (configuration not stated)	NCI-H460 lung	Satisfied
Nc1ncc(-c2ccc3ncnc(N4CCc5cc(F)c(F)cc54)c3c2)cn1	NCI-H460 lung	Not satisfied
COc1cc(-c2nnc(SCc3ccc(O)c4ncccc34)n2-c2ccccc2)cc(OC)c1OC	NCI-H460 lung	Not satisfied
COc1ccc2c(c1)c(-c1cc(N)n3nc(-c4cn(C)c5ccc(OC)cc45)cc3n1)cn2C	NCI-H460 lung	Not satisfied
COc1ccc([C@@H]2c3[nH]c4ccccc4c3C[C@H]3C(=O)N(C4CCN(CC5CCCCC5)CC4)CC(=O)N23)c(OC)c1	NCI-H460 lung	Satisfied
Cc1ccc(NC(=O)CNc2cc(C(N)=O)cc(F)c2C)c(Cl)c1	NCI-H460 lung	Satisfied
Nc1nc(Nc2ccccc2SSc2ccccc2Nc2nc(N)nc(-c3cccc(Br)c3)n2)nc(-c2cccc(Br)c2)n1	NCI-H460 lung	Not satisfied
COc1ccc(/C=C(/C)c2ccc3ccc(OC)cc3[o+]2)c(O)c1	NCI-H460 lung	Satisfied
Cc1nn(-c2ccccc2)c2ncnc(N/N=C/c3cccc(O)c3)c12	NCI-H460 lung	Not satisfied
C#CC(=O)N(c1ccc(OC)cc1OC)C(C(=O)NCC(=O)OCC)c1cccs1 (configuration not stated)	NCI-H460 lung	Satisfied
Nc1nc(-c2cccc([N+](=O)[O-])c2)c(N=Nc2ccc(Br)cc2)s1	NCI-H460 lung	Not satisfied
O=C(NNc1nc2cc(F)ccc2n2c(CO)ccc12)c1cnccn1	NCI-H460 lung	Not satisfied
C#CCC#CCN1CCC[C@H]1C(=O)NCC(=O)OC	NCI-H460 lung	Satisfied
CCCCCCCn1cc2c(NCCc3ccccc3)ncnc2n1	NCI-H460 lung	Satisfied
Cc1cc(C)n(C(=O)c2sc(=S)n(-c3ccccc3)c2N=Nc2c(N)n[nH]c2N)n1	NCI-H460 lung	Satisfied
